# MEASUREMENT_DESCRIPTION: folding stability dG unfold from trypsin proteolysis; higher = more stable
OBSERVATION_TYPE: folding stability dG unfold
Give your result as the value with the unit written after it.

Ask | Bench note: what folding stability dG unfold did SAGGSAGGSAGGSKKYKAKIVSVEYDEETKEVTIKVKLENGEEKTITMSLEELKEIELPSAGGSAGGSAGGS [r4_51_TrROS_Hall] show?
Reply | 1.97 kcal/mol

Ask | Bench note: what folding stability dG unfold did SAGGSAGGSAGGDEVLVFETETVELEVEVRTLNEDGEETTEKEKVTLTVTRVVRLPPGLLSAGGSAGGSAGG [r7_926_TrROS_Hall] show?
Reply | 0.827 kcal/mol

Ask | Bench note: what folding stability dG unfold did SAGKELTIEIVIERNGELITLTIKAKSEEELLEALKKLLEELGFEVEDIKIEKKDGEVIVTVTIRLPKKSAG [r5_946_TrROS_Hall] show?
Reply | 2.7 kcal/mol

Ask | Bench note: what folding stability dG unfold did SAGGSAGGSAGAPTVKLTFTVTRTETKTETLPDGTTKTETKTETRTVTLTLAPGETITVTSAGGSAGGSAGG [r11_174_TrROS_Hall] show?
Reply | 3.39 kcal/mol

Ask | Bench note: what folding stability dG unfold did SAGNVTIRISFYPRKDGWFFRIKVHFDGKPRELMIPPDDSAEDLADELEKKLGADVTDIEVEWMPLEDGSAG [r5_181_TrROS] show?
Reply | 3.27 kcal/mol

Ask | Bench note: what folding stability dG unfold did SAGGSATKVIYGMSVEEIRAAIKAGAKKIIIVADTEEQKKAAAEELEKEYNIKIEVKKIKPKKKKKSAGGSA [r15_243_TrROS_Hall] show?
Reply | 0.83 kcal/mol

Ask | Bench note: what folding stability dG unfold did SAGMVKITVPSSVGPVDPSKALTFEKDDTRYILVPGEVAKEIEEKYPDLPIEIEPMSEEEAEKILKELSAGG [r19_271_JUSTAS] show?
Reply | -0.0536 kcal/mol

Ask | Bench note: what folding stability dG unfold did SMTVVTVEKTPDGGVTITVYVPETGEEVEIPVTDPEVQKKATEDPNTTVKVPKEVLESFYPDRITSLSYTSA [r9_390_JUSTAS] show?
Reply | 0.134 kcal/mol

* * *

# MEASUREMENT_DESCRIPTION: folding stability dG unfold from trypsin proteolysis; higher = more stable
OBSERVATION_TYPE: folding stability dG unfold (kcal/mol)
Numeric answer only, unit kcal/mol assumed.

Ask | Bench note: what folding stability dG unfold did SPKIKIVSVSRTAGGALVALLELEDRPITLYRPLALPYILASAEIPGTNEVKTILAPSSISPEEIAKLLGSA [r9_522_TrMRF] show?
Reply | 1.59

Ask | Bench note: what folding stability dG unfold did SAGGSAGGITIRDPDNGIEVKILKITPNHMIIQAEFPNGRNYMIEMPPDSLKPGDEIPMTVHPVSAGGSAGG [r6_152_TrROS] show?
Reply | -0.008

Ask | Bench note: what folding stability dG unfold did SAGGSAGGSPPMKTYEHWIRFDSPEQAVEEVANHIQDHFGLEIKSVEIEYDPENGWVRVKIVISAGGSAGGS [r12_265_TrROS] show?
Reply | 2.71

* * *

# MEASUREMENT_DESCRIPTION: folding stability dG unfold from trypsin proteolysis; higher = more stable
OBSERVATION_TYPE: folding stability dG unfold (kcal/mol)
Numeric answer only, unit kcal/mol assumed.

Ask | Bench note: what folding stability dG unfold did SAGGSAGGSAGLEIKIPNGNKTITVEKTKDYYKATIYFPETGEKVEFTFPPNVSLSLLDISAGGSAGGSAGG [r11_772_TrMRF] show?
Reply | 1.98

Ask | Bench note: what folding stability dG unfold did SAGGSAGGSAGGSSVSSLSIKNPPSDPKGILSSVSPEGKVVLTTVNPDGSLTTTVVDVNSAGGSAGGSAGGS [r4_177_JUSTAS] show?
Reply | 0.787

Ask | Bench note: what folding stability dG unfold did SAGGSAGGSAGGMPIRVYRDPSNPDVVYVETPESTRDVSLEEVERLPVDEIRSAAEVAAESAGGSAGGSAGG [r17_88_JUSTAS] show?
Reply | 0.335

Ask | Bench note: what folding stability dG unfold did SAGGSAVRIKVWPPNGKEQWIPIPSSMTPSTVQEMAENLADDWQEQNGNKNVKVEVDPDNGWIRIRSAGGSA [r15_33_TrROS] show?
Reply | -1.02

Ask | Bench note: what folding stability dG unfold did SAGPAPGAPWEKVEIVAEAWVPTAGGKAVPVVLARAPDGSLLATFPDGTVRVVVPGAGPEVTVELPLASAGG [r19_199_TrMRF] show?
Reply | 0.115

Ask | Bench note: what folding stability dG unfold did SAGGSAGGQEEEAEALAKEVEAPAREALPGTEVTVTVTVTRREDGSLEVDVTIEGDFALPAALLSAGGSAGG [r6_999_JUSTAS] show?
Reply | 0.813

Ask | Bench note: what folding stability dG unfold did SAGGLKIVETKTEPEIGKRYVVIEVYKPETGKPILYVVPLDLEKGENSPEAVAKAILKELKLPPGVKASAGG [r13_362_TrMRF] show?
Reply | 0.58

Ask | Bench note: what folding stability dG unfold did SGMPTVTLNVTIEFERERLSFDPKTGKPRLELVKVTKPVTITGFFTSPEEAAAAAEAVRKALEADPEALASA [r9_77_JUSTAS] show?
Reply | 1.7

Ask | Bench note: what folding stability dG unfold did SAGGSASLQTSTASVSPGALEKAIEAAKAAPPGTAVSVSFGDPVVGTPRPVTLTVDSAGNLVEITGSAGGSA [r15_228_JUSTAS] show?
Reply | 0.376

Ask | Bench note: what folding stability dG unfold did SAGGKEKKKEKEEKKKKPKPKFIKIKLSPEELLKLAKELPNIDRIFVEVDGKLYEFDAKTGKIVEVDSAGGS [r16_214_TrROS_Hall] show?
Reply | 1.28

Ask | Bench note: what folding stability dG unfold did SAGGSAGGSPPPITIFTAYKDPEDGPYWMKRRKINPDNGNIEEEWYPADDLADHGLPPGDIFISAGGSAGGS [r12_123_TrROS] show?
Reply | -0.566

Ask | Bench note: what folding stability dG unfold did SAGGSSMVDIKPGLVTEIRVETLPNGERVYVVEIPLENGERAVVKISEKFKSEEEKLKAIYEAVSKSAGGSA [r2_347_JUSTAS] show?
Reply | 1.71

Ask | Bench note: what folding stability dG unfold did SAGGRAEEFATFLAELLRALLPPGEKVRATAVVTPEGVVVRVEHPLGFVAEALVKGDKLVRLELRPVSAGGS [r8_287_TrMRF] show?
Reply | 3.17

Ask | Bench note: what folding stability dG unfold did SAGGSAAVDLSERPPALPVPLKVEVIPIPETGSSLVLVTHPDGFVLLARVNPEGEVELLSAFSLDDSAGGSA [r15_790_TrMRF] show?
Reply | 1.56

* * *

# MEASUREMENT_DESCRIPTION: folding stability dG unfold from chymotrypsin proteolysis; higher = more stable
For each entry below, report its folding stability dG unfold value.
Give your result as the value with the unit written after it.

Ask | Bench note: what folding stability dG unfold did SAGGSAGGMIREIEVKVSPEFPSVEEVVEELKAKGYEVKRIEEDPETDEVIVYVVKKVPEEEHHSAGGSAGG [r6_604_JUSTAS] show?
Reply | 1.04 kcal/mol

Ask | Bench note: what folding stability dG unfold did SAGGKTIYFPISEARNFLKEAIDNGLDNIRIEVFNGDKPREIDIPPGNLDDLIDNIPPNSWVQIEPKSAGGS [r16_636_TrROS] show?
Reply | 0.536 kcal/mol

Ask | Bench note: what folding stability dG unfold did SAGGGMMTLVTLEITIPKPPDPKTGKSRPLPLTLEFEVEADDPEALEERVEEELEKIGIPEEARKLLSAGGS [r16_40_JUSTAS] show?
Reply | 0.547 kcal/mol

* * *

# MEASUREMENT_DESCRIPTION: folding stability dG unfold (combined trypsin and chymotrypsin); higher = more stable
For each entry below, report its folding stability dG unfold value.
Give your result as the value with the unit written after it.

Ask | Bench note: what folding stability dG unfold did SAGGSAMDLKIKKKERDPPNGTKKLTVEVPGWEVEINIERNPDGPYKIEIYAPNPAAKNAIKEFIKSAGGSA [r15_42_TrROS] show?
Reply | 0.324 kcal/mol

Ask | Bench note: what folding stability dG unfold did SASNRVTVSSETVREGDKKLLKLTVTITDSSTGRTSTETLTTEDPEKAREELAARPDVSTLTFETLTPGSAG [r14_464_JUSTAS] show?
Reply | 0.1 kcal/mol

Ask | Bench note: what folding stability dG unfold did SAGGSAGGSASLSPEKKVTIKTTVPQPTPPAVTTTLTGQFPSSLTLEELAEKDPNATVSITGSAGGSAGGSA [r18_279_JUSTAS] show?
Reply | 1.04 kcal/mol
